test system: HT-1080; test: relative cell viability with RSL3 co-treatment (fraction of control); higher = stronger protection from RSL3-induced ferroptosis (higher viability); settings: 10 µM
Would you kindly list relative cell viability for each of these compounds?
No unit in the answer, only the number.

Entry O=c1c(O)c(-c2ccc(O)c(O)c2)oc2cc(O)cc(O)c12 : reported relative cell viability = ?
0.703

Another compound to look at: O=C(Nc1nc2cccc(-c3ccc(CN4CCS(=O)(=O)CC4)cc3)n2n1)C1CC1
0.687

Another compound to look at: COc1cccc2cc(-c3nc([C@H]4CC[C@H](C(=O)O)CC4)n4ncnc(N)c34)[nH]c12
0.7

---

Would you kindly list relative cell viability for each of these molecules?
tested on: HT-1080; assay: relative cell viability with RSL3 co-treatment (fraction of control); higher = stronger protection from RSL3-induced ferroptosis (higher viability); details: 10 µM
No unit in the answer, only the number.

Entry CNc1nc(Nc2cnn([C@H]3CCN(C4COC4)C[C@@H]3F)c2Cl)ncc1C(F)(F)F : reported relative cell viability = ?
0.617

Another molecule to look at: C[S+]([O-])c1ccc(-c2nc(-c3ccc(F)cc3)c(-c3ccncc3)[nH]2)cc1 (stereo not drawn)
0.603

Another molecule to look at: Cc1[nH]nc2ccc(-c3cncc(OC[C@@H](N)Cc4ccccc4)c3)cc12
0.59

---

tested on: HT-1080; assay: relative cell viability with RSL3 co-treatment (fraction of control); higher = stronger protection from RSL3-induced ferroptosis (higher viability); details: 10 µM
Would you kindly list relative cell viability for each of these compounds?
No unit in the answer, only the number.

Please state recorded relative cell viability (tested on HT-1080) of O=C1c2ccc(Nc3ccc(F)cc3F)cc2CCc2ccc(OC[C@H](O)CO)cc21 [Skepinone-L];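 also: viability read as CCK-8 absorbance at 450 nm in cells co-exposed to the GPX4 inhibitor RSL3, relative to a 0.01% DMSO vehicle control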
0.513

Another compound to look at: CC(C)(C#N)c1ccc(N2C(=O)OCc3cnc4ccc(-c5cnc6ccccc6c5)cc4c32)cc1
0.45

Another compound to look at: CC(C)(C)c1nc(-c2cccc(NS(=O)(=O)c3c(F)cccc3F)c2F)c(-c2ccnc(N)n2)s1
0.577

Another compound to look at: S=C(NCc1ccc2c(c1)OCO2)N1CCN(c2ncnc3c2oc2ccccc23)CC1 [Amuvatinib (MP-470)]
0.55
